Biological target: human ether-à-go-go-related gene (hERG) potassium channel (human, UniProt Q12809);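 also: peak tail current of the secondary pulse compared with the same well before compound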
Sequence (Q12809 whole entry, looked up): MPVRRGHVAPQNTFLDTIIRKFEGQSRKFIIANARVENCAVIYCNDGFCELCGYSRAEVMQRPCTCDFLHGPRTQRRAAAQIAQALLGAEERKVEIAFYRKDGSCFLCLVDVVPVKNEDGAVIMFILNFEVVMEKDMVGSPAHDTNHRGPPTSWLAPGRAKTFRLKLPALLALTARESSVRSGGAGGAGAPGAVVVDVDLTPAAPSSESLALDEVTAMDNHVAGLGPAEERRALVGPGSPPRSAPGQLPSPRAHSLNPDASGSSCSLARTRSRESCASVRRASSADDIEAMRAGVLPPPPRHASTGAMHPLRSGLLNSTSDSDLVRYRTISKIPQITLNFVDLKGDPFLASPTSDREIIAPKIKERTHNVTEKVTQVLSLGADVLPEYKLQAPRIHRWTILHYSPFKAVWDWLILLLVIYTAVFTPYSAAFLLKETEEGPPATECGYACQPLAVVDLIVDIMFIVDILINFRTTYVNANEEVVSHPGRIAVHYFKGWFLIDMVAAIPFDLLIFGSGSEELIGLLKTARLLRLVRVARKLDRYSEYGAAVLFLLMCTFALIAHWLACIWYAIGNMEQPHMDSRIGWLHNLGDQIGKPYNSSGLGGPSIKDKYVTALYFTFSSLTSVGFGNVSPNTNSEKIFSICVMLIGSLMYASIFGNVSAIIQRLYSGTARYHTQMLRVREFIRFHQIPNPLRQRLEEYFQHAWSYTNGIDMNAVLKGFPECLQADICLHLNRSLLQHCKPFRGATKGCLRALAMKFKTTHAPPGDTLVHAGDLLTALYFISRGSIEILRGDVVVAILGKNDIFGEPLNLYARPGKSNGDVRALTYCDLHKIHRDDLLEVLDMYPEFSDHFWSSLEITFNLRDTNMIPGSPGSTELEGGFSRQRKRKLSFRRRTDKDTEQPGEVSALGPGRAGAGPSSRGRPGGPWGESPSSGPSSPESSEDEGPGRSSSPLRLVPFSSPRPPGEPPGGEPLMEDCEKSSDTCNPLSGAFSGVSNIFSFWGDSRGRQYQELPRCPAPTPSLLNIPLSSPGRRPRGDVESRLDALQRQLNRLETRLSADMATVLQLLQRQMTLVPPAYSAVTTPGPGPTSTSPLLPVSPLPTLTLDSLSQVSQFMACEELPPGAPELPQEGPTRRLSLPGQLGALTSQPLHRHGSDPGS
Assay: primary screen, population patch clamp on CHO cells stably expressing hERG; higher = less effect of the substance
Procedure: Briefly, Chinese hamster ovary (CHO) cells stably expressing the hERG channel were dislodged from tissue culture flasks and dispensed into PPC plates. […] During the recording, background leak currents were estimated by a 100 ms step to -80 mV from an initial holding potential of -70 mV and subtracted from the subsequent current measurement. The campaign was conducted in two phases using slight differences in recording protocol. […]
The campaign covered roughly 310,000 compounds. About 14,000 (4.5%) showed an effect of 50% or more. Effects have a minus sign here. The sample as a whole holds a higher share of strong results than the screen did.
Short version: hERG current change (%, negative = inhibition) at 10uM at least 10% is met, less is not met.

INSERT INTO results (molecule, category_label) VALUES
  ('O=C(c1cc(F)ccc1F)C1CCCN(Cc2cccn2-c2ccccn2)C1 (stereo not shown)', 'not met'),
  ('Cc1cc(N/N=C/c2ccco2)c2ccccc2n1', 'met'),
  ('CN(C)C(CNC(=O)c1ccc2ccccc2n1)c1ccccc1 (stereo not shown)', 'met'),
  ('Cc1nc(NC(=O)c2ccccc2)sc1-c1csc(NCCc2ccccc2)n1', 'met'),
  ('COc1ccc(F)cc1C(=O)C1CCCN(C(=O)CSc2ccccn2)C1 (stereo not shown)', 'not met'),
  ('Cc1ccc2nc(SCC(=O)N/N=C/c3ccco3)cc(C)c2c1', 'met'),
  ('COc1ccc(F)cc1C(=O)C1CCCN(Cc2cccn2-c2ccccn2)C1 (stereo not shown)', 'not met'),
  ('Cc1ccc(C(=O)N(C)CC(=O)Nc2cccc(F)c2)cc1S(=O)(=O)N1CCCCC1', 'not met'),
  ('COc1ccc(CC(=O)NNC(=O)CCC(=O)Nc2cc(C)ccc2C)cc1', 'met'),
  ('Cc1ccc2nc(N/N=C/c3ccco3)cc(C)c2c1', 'not met');
